# target.entity: T1, canine OX40L, full length membrane form, expressed on HEK293 cells (canine)
# T1 construct: also called OX40L expressing HEK; HEK OX40L cells
# T1 chain: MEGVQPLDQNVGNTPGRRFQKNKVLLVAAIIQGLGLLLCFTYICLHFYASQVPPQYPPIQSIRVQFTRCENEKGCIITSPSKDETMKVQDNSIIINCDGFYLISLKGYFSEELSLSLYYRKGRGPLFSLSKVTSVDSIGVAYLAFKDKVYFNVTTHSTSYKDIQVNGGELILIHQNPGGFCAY
# assay.procedure: flow cytometry
# Protocol: CHO supernatants diluted in FACS buffer (PBS containing 3% FBS) at 1, 5 or 10 μg/ml were used to screen for their binding capacity to canine OX40L using a cell-based assay. In brief, HEK293 or MEF cells (or any other commonly used cell lines) expressing canine OX40L at the cell surface are incubated with 100 μll of FACS buffer containing the candidate antibody for 30′ on ice. Cells are washed with 150 μl FACS buffer followed by centrifugation at 300 g for 3 min. […]

binder | GEO mean OX40L expressing HEK
PMX155 (antibody, V domains shown) VH: ELHLVESGGDLVKPAGSLRLSCVASGFTFSSFRMSWVRQSPGKGLQFVAGINSDGYNTQYRDDVKGRFTISRDNTEKTLYLQMNNLRVEDTAMYYCVKDQGSWGGNFDFWGQGTLVTVSS VL: SYGLTQPPSVNVTLRETAHITCGGDSIGSKYVQWIQQIPGQAPVVIIYKDRNRPTGIPERFSGANSGNTATLTISGALAEDEADYYCQVGDSGTSVFGGGTHLTVL | 738000
PMX048 (antibody, V domains shown, also called PMX48) VH: EVQLVESGGDLVKPGGSLRLSCVASGFTFNNYEMYWVRQAPGKGLEWVARIYESGTTTYSAEADTGRFTISRDNAKNMVFLQMNSLRAEDTAVYYCASASSSTWRFDYWGQGTLVTVSS VL: SYVLTQLPSVSVTLGQTARITCGGDSIGRKNVYWFQQKLGQAPVLIIYDDRSRPSGIPERFSGANSGNTATLTISGALAEDEADYYCQVWDSSTGVFGGGTHLTVL | 3.92e+06
PMX051 (antibody, V domains shown, also called PMX51) VH: EVQLVESGGDLVKPGGSLRLSCVASGFSFNTYHMNWVRQAPGKGLHWVAFINSDGGGTSYADTVKGRFTISRDYAKNTLYLQMNSLRAEDTAVYYCVSGSIWTHFDYWGQGTLVTVSS VL: SYVLTQLPSVSMTLRQTAHITCGGDIIGSKSVYWYQQKLGQAPVLIIYRDTNRPTGIPERFSGASSGNTATLTISGALAEDEADYYCQVWDSSTQAVFGGGTHLTVL | 3.94e+06
